Every entry's value here was drawn from ChEMBL document CHEMBL1122677.

- TEST_SYSTEM: Estrogen receptor (Mus musculus) (UniProt O08537+P19785)
- Sequence (O08537 whole entry, looked up): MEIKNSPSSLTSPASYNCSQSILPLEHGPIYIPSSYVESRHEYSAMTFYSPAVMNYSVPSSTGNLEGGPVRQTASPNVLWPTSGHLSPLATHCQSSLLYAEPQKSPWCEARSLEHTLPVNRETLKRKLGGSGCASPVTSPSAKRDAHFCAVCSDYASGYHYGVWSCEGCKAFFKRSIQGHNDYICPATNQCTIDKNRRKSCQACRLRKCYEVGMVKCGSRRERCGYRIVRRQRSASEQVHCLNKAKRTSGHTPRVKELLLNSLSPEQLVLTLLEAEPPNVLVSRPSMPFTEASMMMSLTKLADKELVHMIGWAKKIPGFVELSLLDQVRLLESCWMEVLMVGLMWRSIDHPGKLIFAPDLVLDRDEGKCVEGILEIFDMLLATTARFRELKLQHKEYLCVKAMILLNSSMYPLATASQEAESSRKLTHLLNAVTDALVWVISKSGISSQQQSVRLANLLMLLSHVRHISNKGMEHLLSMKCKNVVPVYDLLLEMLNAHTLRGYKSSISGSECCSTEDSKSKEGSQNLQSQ
- Sequence (P19785 whole entry, looked up): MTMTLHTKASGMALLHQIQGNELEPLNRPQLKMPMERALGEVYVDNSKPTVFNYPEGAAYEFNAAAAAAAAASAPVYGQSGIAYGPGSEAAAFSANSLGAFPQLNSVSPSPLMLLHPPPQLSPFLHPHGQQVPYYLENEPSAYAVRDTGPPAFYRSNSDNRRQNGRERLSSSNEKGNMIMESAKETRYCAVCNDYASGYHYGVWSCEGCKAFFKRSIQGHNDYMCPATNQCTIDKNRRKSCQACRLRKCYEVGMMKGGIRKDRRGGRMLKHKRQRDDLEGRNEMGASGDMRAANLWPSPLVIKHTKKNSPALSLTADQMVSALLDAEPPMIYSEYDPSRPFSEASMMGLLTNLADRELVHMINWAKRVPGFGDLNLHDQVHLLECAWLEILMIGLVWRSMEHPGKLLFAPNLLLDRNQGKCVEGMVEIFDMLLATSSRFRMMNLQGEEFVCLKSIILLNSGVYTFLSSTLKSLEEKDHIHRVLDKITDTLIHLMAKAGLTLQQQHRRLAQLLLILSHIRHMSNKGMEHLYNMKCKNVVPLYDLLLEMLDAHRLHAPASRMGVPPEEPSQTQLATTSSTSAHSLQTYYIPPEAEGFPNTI
- PROCEDURE_DETAILS: Percent inhibition of uterotrophic effect in mice at 5 ug
- Type: functional
The entries below are paired with their reported inhibition.
Give the value in % but do not write % after it.

INSERT INTO results (compound, test_system, obs_value) VALUES
  ('CC(c1cc(O)ccc1Cl)C(C)c1cc(O)ccc1Cl (centres undefined)', 'Estrogen receptor (Mus musculus) (UniProt O08537+P19785)', 21),
  ('CC(c1ccc(O)cc1)C(C)c1ccc(O)cc1 (centres undefined)', 'Estrogen receptor (Mus musculus) (UniProt O08537+P19785)', 12),
  ('Cc1ccc(O)cc1C(C)C(C)c1cc(O)ccc1C (centres undefined)', 'Estrogen receptor (Mus musculus) (UniProt O08537+P19785)', 5);

We next turn to a different compound, shown below.
Ask: For the compound CC(c1cccc(O)c1)C(C)c1cccc(O)c1 (centres undefined) , give its reported inhibition.
Reply: 13

---

- TEST_SYSTEM: Estrogen receptor (Mus musculus) (UniProt O08537+P19785)
- PROCEDURE_DETAILS: Uterotrophic effect in mice at 1000 ug
- Assay type: functional, tissue-based
- MEASUREMENT_SETUP: Uterus
ENDPOINT_NAME: Effect
Answer with a number only.

In the examples that follow, each entry is paired with its recorded Effect.
INSERT INTO measurements (compound, obs_value) VALUES
  ('CC(c1ccc(O)cc1O)C(C)c1ccc(O)cc1O (centres undefined)', 34.6),
  ('Cc1ccc(O)cc1C(C)C(C)c1cc(O)ccc1C (centres undefined)', 17.4),
  ('CC(c1cccc(O)c1)C(C)c1cccc(O)c1 (centres undefined)', 13.1);

Ask: Report the value of Effect obtained on Estrogen receptor (Mus musculus) (UniProt O08537+P19785) for CC(c1ccc(O)cc1)C(C)c1ccc(O)cc1 (centres undefined) .
Reply: 34.8

---

- TEST_SYSTEM: Estrogen receptor (Mus musculus) (UniProt O08537+P19785)
- PROCEDURE_DETAILS: Percent inhibition of uterotrophic effect in mice at 50 ug
- Format: functional
ENDPOINT_NAME: inhibition (%)
Give the value in % but do not write % after it.

INSERT INTO measurements (molecule, obs_value) VALUES
  ('CC(c1ccc(O)cc1O)C(C)c1ccc(O)cc1O (stereo not given)', 25),
  ('CC(c1cc(O)ccc1Cl)C(C)c1cc(O)ccc1Cl (stereo not given)', 24),
  ('CC(c1ccc(O)cc1)C(C)c1ccc(O)cc1 (stereo not given)', 26),
  ('Cc1ccc(O)cc1C(C)C(C)c1cc(O)ccc1C (stereo not given)', 20);

Ask: For the molecule CC(c1cccc(O)c1)C(C)c1cccc(O)c1 (stereo not given) , give its reported inhibition.
Reply: 25

---

- TEST_SYSTEM: Estrogen receptor (Bos taurus) (UniProt Q9XSB5+P49884)
- PROCEDURE_DETAILS: Displacement of [3H]-estradiol from calf uterine estrogen receptor
- Format: protein assay
ENDPOINT_NAME: relative binding affinity (RBA)
Answer with a number only.

INSERT INTO assay_data (compound, obs_value) VALUES
  ('CC(c1ccc(O)cc1)C(C)c1ccc(O)cc1 (centres undefined)', 12),
  ('Cc1ccc(O)cc1C(C)C(C)c1cc(O)ccc1C (centres undefined)', 5.2),
  ('CC(c1ccc(O)cc1Br)C(C)c1ccc(O)cc1Br (centres undefined)', 3.4);

We next turn to a different compound, shown below.
Ask: For the compound CC(c1ccc(O)cc1Cl)C(C)c1ccc(O)cc1Cl (centres undefined) , give its reported relative binding affinity (RBA).
Reply: 4.5
